Provenance of the data: patent US9107814B2

Quick list: prodrug:caprolactone per entry.
Test: paclitaxel prodrug loading and sizing of PEG-b-PCL micelles
Type: physicochemical
Details: 20% w/w prodrug loading in 0.5-mM PEG-b-PCL micelles

For orientation, consider the following solved cases.
compound	recorded result
CCCCCCCCCCCC(=O)OC(C(=O)OC1CC2(O)C(OC(=O)c3ccccc3)C3C4(OC(C)=O)COC4CC(O)C3(C)C(=O)C(OC(C)=O)C(=C1C)C2(C)C)C(NC(=O)c1ccccc1)c1ccccc1 (stereo not shown) [Prodrug 5b]	34.0 mmol:mol
CC(=O)O[C@H]1C(=O)[C@@]2(C)[C@H]([C@H](OC(=O)c3ccccc3)[C@]3(O)C[C@H](OC(=O)[C@H](O)[C@@H](NC(=O)c4ccccc4)c4ccccc4)C(C)=C1C3(C)C)[C@]1(OC(C)=O)CO[C@@H]1C[C@@H]2O [Paclitaxel, reference compound]	<1 mmol:mol
CCCCCC(=O)O[C@H]1C[C@H]2OC[C@@]2(OC(C)=O)[C@H]2[C@H](OC(=O)c3ccccc3)[C@]3(O)C[C@H](OC(=O)[C@H](O)[C@@H](NC(=O)c4ccccc4)c4ccccc4)C(C)=C([C@@H](OC(C)=O)C(=O)[C@]12C)C3(C)C [Prodrug 4a]	36.5 mmol:mol

Turning now to a further compound:
q: Request the reported prodrug:caprolactone associated with CCCCCCCCCCCCCCCC(=O)O[C@@H](C(=O)O[C@H]1C[C@@]2(O)[C@@H](OC(=O)c3ccccc3)[C@@H]3[C@]4(OC(C)=O)CO[C@@H]4C[C@H](O)[C@@]3(C)C(=O)[C@H](OC(C)=O)C(=C1C)C2(C)C)[C@@H](NC(=O)c1ccccc1)c1ccccc1 [Prodrug 5c, 2-palmitate-paclitaxel]
a: 40.0 mmol:mol

====

Assay: physchem
Conditions: pH 7
readout kind: chromatographic logP
Respond numerically, and do not add a unit to the figure.

q: Request the reported chromatographic logP associated with CC(=O)O[C@H]1C(=O)[C@@]2(C)[C@H]([C@H](OC(=O)c3ccccc3)[C@]3(O)C[C@H](OC(=O)[C@H](O)[C@@H](NC(=O)c4ccccc4)c4ccccc4)C(C)=C1C3(C)C)[C@]1(OC(C)=O)CO[C@@H]1C[C@@H]2O [Paclitaxel, reference compound]
a: 4.4

====

Assay: paclitaxel prodrug loading and sizing of PEG-b-PCL micelles
Type: physicochemical
Details: after evaporation to 25% of original volume and refiltration (0.22-μm)
Quick list: Solubilized (in parentheses) per entry.
Give a bare numeral; the unit mg/mL is implied.

For orientation, consider the following solved cases.
molecule	readout kind	value units	recorded result
CCCCCCCCCCCC(=O)O[C@H]1C[C@H]2OC[C@@]2(OC(C)=O)[C@H]2[C@H](OC(=O)c3ccccc3)[C@]3(O)C[C@H](OC(=O)[C@H](O)[C@@H](NC(=O)c4ccccc4)c4ccccc4)C(C)=C([C@@H](OC(C)=O)C(=O)[C@]12C)C3(C)C [Prodrug 4b]	Solubilized (in parentheses)	mg/mL	2.2
CCCCCCCCCCCCCCCC(=O)O[C@H]1C[C@H]2OC[C@@]2(OC(C)=O)[C@H]2[C@H](OC(=O)c3ccccc3)[C@]3(O)C[C@H](OC(=O)[C@H](O)[C@@H](NC(=O)c4ccccc4)c4ccccc4)C(C)=C([C@@H](OC(C)=O)C(=O)[C@]12C)C3(C)C [Prodrug 4c, 7-palmitate-paclitaxel]	Solubilized (in parentheses)	mg/mL	3.0

Turning now to a further molecule:
q: Request the reported Solubilized (in parentheses) associated with CCCCCC(=O)O[C@H]1C[C@H]2OC[C@@]2(OC(C)=O)[C@H]2[C@H](OC(=O)c3ccccc3)[C@]3(O)C[C@H](OC(=O)[C@H](O)[C@@H](NC(=O)c4ccccc4)c4ccccc4)C(C)=C([C@@H](OC(C)=O)C(=O)[C@]12C)C3(C)C [Prodrug 4a]
a: 5.1
